Hello, the source for this data is ChEMBL document CHEMBL1275453, in case you need it.

Test system: Parabacteroides distasonis
test_summary: Antibacterial activity against Bacteroides distasonis isolate by agar dilution method
Assay type: functional
reported_endpoint: MIC50

> print(dat)
                                   molecule  measured.result
1  C[C@@H](O)[C@H]1C(=O)N2C(C(=O)O)=C(SCCNC=N)C[C@H]12 [IMIPENEM ANHYDROUS]          1 µg/mL
2  O=C(N[C@H](CO)[C@H](O)c1ccc([N+](=O)[O-])cc1)C(Cl)Cl          8 µg/mL
3  COc1c(N2C[C@@H]3CCCN[C@@H]3C2)c(F)cc2c(=O)c(C(=O)O)cn(C3CC3)c12          1 µg/mL
4  CCC[C@@H]1C[C@@H](C(=O)N[C@@H]([C@H]2O[C@H](SC)[C@H](O)[C@@H](O)[C@H]2O)[C@H](C)Cl)N(C)C1          4 µg/mL
5  CO[C@@]1(NC(=O)Cc2cccs2)C(=O)N2C(C(=O)O)=C(COC(N)=O)CS[C@@H]21         32 µg/mL
6  CN(C)c1cc(NC(=O)CNC(C)(C)C)c(O)c2c1C[C@H]1C[C@H]3[C@H](N(C)C)C(O)=C(C(N)=O)C(=O)[C@@]3(O)C(O)=C1C2=O          2 µg/mL
7                 Cc1ncc([N+](=O)[O-])n1CCO          1 µg/mL

----------
Below, each entry is listed alongside its reported MIC90.
Tested on: Phocaeicola vulgatus
test_summary: Antibacterial activity against Bacteroides vulgatus isolate by agar dilution method
Format: functional
reported_endpoint: MIC90 (µg/mL)

> print(dat)
                                   molecule       subject.of.test  reported.endpoint  units.symbol  limit.operator  measured.result
1                 Cc1ncc([N+](=O)[O-])n1CCO  Phocaeicola vulgatus              MIC90         µg/mL               =                2
2  CO[C@@]1(NC(=O)Cc2cccs2)C(=O)N2C(C(=O)O)=C(COC(N)=O)CS[C@@H]21  Phocaeicola vulgatus              MIC90         µg/mL               =               64
3  CCC[C@@H]1C[C@@H](C(=O)N[C@@H]([C@H]2O[C@H](SC)[C@H](O)[C@@H](O)[C@H]2O)[C@H](C)Cl)N(C)C1  Phocaeicola vulgatus              MIC90         µg/mL               >              256
4  O=C(N[C@H](CO)[C@H](O)c1ccc([N+](=O)[O-])cc1)C(Cl)Cl  Phocaeicola vulgatus              MIC90         µg/mL               =                8
5  C[C@@H](O)[C@H]1C(=O)N2C(C(=O)O)=C(SCCNC=N)C[C@H]12 [IMIPENEM ANHYDROUS]  Phocaeicola vulgatus              MIC90         µg/mL               =                2
6  CN(C)c1cc(NC(=O)CNC(C)(C)C)c(O)c2c1C[C@H]1C[C@H]3[C@H](N(C)C)C(O)=C(C(N)=O)C(=O)[C@@]3(O)C(O)=C1C2=O  Phocaeicola vulgatus              MIC90         µg/mL               =                8
7  COc1c(N2C[C@@H]3CCCN[C@@H]3C2)c(F)cc2c(=O)c(C(=O)O)cn(C3CC3)c12  Phocaeicola vulgatus              MIC90         µg/mL               =               16
